- Substrate: NC(=O)C1=CN([C@@H]2O[C@H](COP(=O)(O)OP(=O)(O)OC[C@H]3O[C@@H](n4cnc5c(N)ncnc54)[C@H](OP(=O)(O)O)[C@@H]3O)[C@@H](O)[C@H]2O)C=CC1
- PROTOCOL_DESCRIPTION: NADPH-dependent diaphorase assay
- Type: biochemical, Zea mays
- MEASUREMENT_PARAMETERS: DCPIP as electron acceptor

{"columns": ["PROTEIN", "Km, µM"],
 "data": [
  ["maize leaf FNR (L‐FNR) (Zea mays; Y355S) (protein, recombinant mature leaf FNR, FAD flavoprotein, C-terminal Tyr314) IRAQASAVEAPATAKAKKESKKQEEGVVTNLYKPKEPYVGRCLLNTKITGDDAPGETWHMVFSTEGKIPYREGQSIGVIADGVDKNGKPHKVRLYSIASSAIGDFGDSKTVSLCVKRLIYTNDAGEIVKGVCSNFLCDLQPGDNVQITGPVGKEMLMPKDPNATIIMLATGTGIAPFRSFLWKMFFEKHDDYKFNGLGWLFLGVPTSSSLLYKEEFGKMKERAPENFRVDYAVSREQTNAAGERMYIQTRMAEYKEELWELLKKDNTYVYMCGLKGMEKGIDDIMVSLAEKDGIDWFDYKKQLKRGDQWNVEVS", 0.27],
  ["maize leaf FNR (L‐FNR) (Zea mays; R276Q) (protein, recombinant mature leaf FNR, FAD flavoprotein, C-terminal Tyr314) IRAQASAVEAPATAKAKKESKKQEEGVVTNLYKPKEPYVGRCLLNTKITGDDAPGETWHMVFSTEGKIPYREGQSIGVIADGVDKNGKPHKVRLYSIASSAIGDFGDSKTVSLCVKRLIYTNDAGEIVKGVCSNFLCDLQPGDNVQITGPVGKEMLMPKDPNATIIMLATGTGIAPFRSFLWKMFFEKHDDYKFNGLGWLFLGVPTSSSLLYKEEFGKMKERAPENFRVDYAVSQEQTNAAGERMYIQTRMAEYKEELWELLKKDNTYVYMCGLKGMEKGIDDIMVSLAEKDGIDWFDYKKQLKRGDQWNVEVY", 500],
  ["maize leaf FNR (L‐FNR) (Zea mays) (protein, recombinant mature leaf FNR, FAD flavoprotein, C-terminal Tyr314) IRAQASAVEAPATAKAKKESKKQEEGVVTNLYKPKEPYVGRCLLNTKITGDDAPGETWHMVFSTEGKIPYREGQSIGVIADGVDKNGKPHKVRLYSIASSAIGDFGDSKTVSLCVKRLIYTNDAGEIVKGVCSNFLCDLQPGDNVQITGPVGKEMLMPKDPNATIIMLATGTGIAPFRSFLWKMFFEKHDDYKFNGLGWLFLGVPTSSSLLYKEEFGKMKERAPENFRVDYAVSREQTNAAGERMYIQTRMAEYKEELWELLKKDNTYVYMCGLKGMEKGIDDIMVSLAEKDGIDWFDYKKQLKRGDQWNVEVY", 46],
  ["maize leaf FNR (L‐FNR) (Zea mays; R285Q) (protein, recombinant mature leaf FNR, FAD flavoprotein, C-terminal Tyr314) IRAQASAVEAPATAKAKKESKKQEEGVVTNLYKPKEPYVGRCLLNTKITGDDAPGETWHMVFSTEGKIPYREGQSIGVIADGVDKNGKPHKVRLYSIASSAIGDFGDSKTVSLCVKRLIYTNDAGEIVKGVCSNFLCDLQPGDNVQITGPVGKEMLMPKDPNATIIMLATGTGIAPFRSFLWKMFFEKHDDYKFNGLGWLFLGVPTSSSLLYKEEFGKMKERAPENFRVDYAVSREQTNAAGEQMYIQTRMAEYKEELWELLKKDNTYVYMCGLKGMEKGIDDIMVSLAEKDGIDWFDYKKQLKRGDQWNVEVY", 310]
]}
